- Test system: Candida albicans
- RUN_DESCRIPTION: Antimicrobial activity against amphotericin-resistant Candida albicans
- Type: functional, organism-based
Calls of active or inactive are those of the source. The calls are words filed in the database; no cut-off is given here.

{"COMPOUND": "CCCCCC[C@H](C)[C@@H]1CC(=O)NCC(=O)N[C@@H](C(C)C)C(=O)N[C@@H](CC(C)C)C(=O)N[C@@H](C)C(=O)N[C@@H](CCSC)C(=O)O1", "TESTED_TARGET": "Candida albicans", "Activity": "inactive"}
{"COMPOUND": "CCCCCC[C@@H](C)[C@H](O)CC(=O)NCC(=O)N[C@H](C(=O)C[C@@H](CC(C)C)C(=O)N[C@@H](C)C(=O)N[C@@H](Cc1ccccc1)C(=O)OC)C(C)C", "TESTED_TARGET": "Candida albicans", "Activity": "inactive"}
{"COMPOUND": "CCCCCC[C@H](C)[C@@H]1CC(=O)NCC(=O)N[C@@H](C(C)C)C(=O)N[C@@H](CC(C)C)C(=O)N[C@@H](C)C(=O)N[C@@H](Cc2ccccc2)C(=O)O1 [ARENAMIDE A]", "TESTED_TARGET": "Candida albicans", "Activity": "inactive"}
{"COMPOUND": "CCCC[C@H](C)[C@@H]1CC(=O)NCC(=O)N[C@@H](C(C)C)C(=O)N[C@@H](CC(C)C)C(=O)N[C@@H](C)C(=O)N[C@@H](Cc2ccccc2)C(=O)O1 [ARENAMIDE B]", "TESTED_TARGET": "Candida albicans", "Activity": "inactive"}
